molecular target: Adenosine receptors; A1 & A2a (Rattus norvegicus) (UniProt P25099+P30543); assay: Ratio of Ki for A2A and A1 receptors; type: protein assay
Sequence (P25099 whole entry, looked up): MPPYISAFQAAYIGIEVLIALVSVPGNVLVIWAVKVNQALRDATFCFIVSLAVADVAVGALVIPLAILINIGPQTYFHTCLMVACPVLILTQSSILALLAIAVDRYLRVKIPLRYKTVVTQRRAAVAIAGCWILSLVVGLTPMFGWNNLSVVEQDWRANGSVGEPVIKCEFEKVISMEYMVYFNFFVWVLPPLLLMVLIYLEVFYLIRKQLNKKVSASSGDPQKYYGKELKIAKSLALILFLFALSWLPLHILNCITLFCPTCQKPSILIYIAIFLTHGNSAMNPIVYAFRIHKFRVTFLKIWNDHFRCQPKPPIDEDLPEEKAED
Sequence (P30543 whole entry, looked up): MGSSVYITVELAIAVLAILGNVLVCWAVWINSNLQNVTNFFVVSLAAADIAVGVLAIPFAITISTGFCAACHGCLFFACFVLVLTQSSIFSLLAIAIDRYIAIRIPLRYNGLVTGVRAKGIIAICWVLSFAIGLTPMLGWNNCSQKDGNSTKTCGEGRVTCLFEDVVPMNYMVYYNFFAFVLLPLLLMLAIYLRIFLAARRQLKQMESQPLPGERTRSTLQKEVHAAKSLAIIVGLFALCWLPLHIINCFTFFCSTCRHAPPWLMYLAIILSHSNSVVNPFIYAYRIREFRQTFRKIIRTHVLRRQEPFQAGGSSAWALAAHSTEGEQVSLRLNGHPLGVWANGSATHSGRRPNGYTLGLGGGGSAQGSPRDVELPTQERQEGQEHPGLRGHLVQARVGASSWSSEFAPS
// assign YES if Ratio falls strictly below 20, else NO (ties count as NO)

Field: below-cutoff. Rule: recorded Ratio strictly less than 20. Subject: `CCCOC1=Nc2c(cnn2-c2ccccc2)C2=N[C@@H](C)[C@H](c3ccccc3)N12`
YES

Field: below-cutoff. Rule: recorded Ratio strictly less than 20. Subject: C[C@@H]1N=C2c3ncn(C4O[C@@H](CO)[C@H](O)[C@@H]4O)c3N=CN2[C@H]1c1ccccc1 (some centres not stated)
NO

Field: below-cutoff. Rule: recorded Ratio strictly less than 20. Subject: OC[C@@H]1OC(n2cnc3c2N=CN2C[C@H](Cc4ccccc4)N=C32)[C@@H](O)[C@H]1O (some centres not stated)
YES

Continuing:
Field: below-cutoff. Rule: recorded Ratio strictly less than 20. Subject: `CCCOC1=Nc2c(cnn2-c2ccccc2)C2=N[C@H](Cc3ccccc3)CN12`
NO

Field: below-cutoff. Rule: recorded Ratio strictly less than 20. Subject: OC[C@@H]1OC(n2cnc3c2N=CN2C[C@H](c4ccccc4)N=C32)[C@@H](O)[C@H]1O (some centres not stated)
NO

Field: below-cutoff. Rule: recorded Ratio strictly less than 20. Subject: `CCCOC1=Nc2c(ncn2-c2ccccc2)C2=N[C@@H](Cc3ccccc3)CN12`
YES

Field: below-cutoff. Rule: recorded Ratio strictly less than 20. Subject: OC[C@@H]1OC(n2cnc3c2N=CN2C[C@@H](Cc4ccccc4)N=C32)[C@@H](O)[C@H]1O (some centres not stated)
YES

Field: below-cutoff. Rule: recorded Ratio strictly less than 20. Subject: OC[C@@H]1OC(n2cnc3c2N=CN2C[C@@H](c4ccccc4)N=C32)[C@@H](O)[C@H]1O (some centres not stated)
YES

Field: below-cutoff. Rule: recorded Ratio strictly less than 20. Subject: C[C@H]1N=C2c3ncn(C4O[C@@H](CO)[C@H](O)[C@@H]4O)c3N=CN2[C@@H]1c1ccccc1 (some centres not stated)
YES
